Where do the numbers come from? From patent US11358977B2.

- experimental-protocol: In vivo pharmacokinetic study, rat IV
- Design: species or system Male Sprague Dawley rats
- assay-setup: male, Sprague Dawley, plasma; rat IV bolus, cassette, nominal 0.5 mg/kg, 0.083 hours
- Method: General Procedures. Concentrations of the test compounds in plasma were determined using a high performance liquid chromatography/tandem mass spectrometry (HPLC/MS/MS) method. […] The analytes were detected by MS/MS with Electrospray Ionization (ESI) in the mode of multiple reaction monitoring (MRM). The lower limit of quantitation (LLOQ) was 1.00 ng/mL. […]
reported-property: concentration at 0.083 h (ng/mL)
Write the value in ng/mL as a bare number.

Problem: Indicate its recorded concentration at 0.083 h; the molecule in question is `[2H]C([2H])([2H])c1cc(F)ccc1Oc1cc(C(F)(F)F)ccc1C(=O)Nc1cc[nH]c(=O)c1`
Result: 420

Problem: Indicate its recorded concentration at 0.083 h; the molecule in question is Cc1cc(F)ccc1Oc1cc(C(F)(F)F)ccc1C(=O)Nc1cc[nH]c(=O)c1 [Compound 10, reference compound]
Result: 391

* * *

So I've got a bunch of molecules here, and I need their concentration at 4 h values.
- experimental-protocol: In vivo pharmacokinetic study, rat IV
- Design: species or system Male Sprague Dawley rats
- assay-setup: male, Sprague Dawley, plasma; rat IV bolus, cassette, nominal 0.5 mg/kg, 4 hours
Write the value in ng/mL as a bare number.

Problem: Indicate its recorded concentration at 4 h; the molecule in question is Cc1cc(F)ccc1Oc1cc(C(F)(F)F)ccc1C(=O)Nc1cc[nH]c(=O)c1 [Compound 10, reference compound]
Result: 51.6

Problem: Indicate its recorded concentration at 4 h; the molecule in question is `[2H]C([2H])([2H])c1cc(F)ccc1Oc1cc(C(F)(F)F)ccc1C(=O)Nc1cc[nH]c(=O)c1`
Result: 154

* * *

So I've got a bunch of compounds here, and I need their half-life at 0.25 µM values.
- experimental-protocol: In vitro hepatocyte assay: prodrug conversion to parent compound
- Format: in vitro ADME, human
- assay-setup: cryopreserved human hepatocytes in suspension; cryopreserved human hepatocytes 0.625 million cells/mL, 37° C., Compounds 20 and 13 co-incubated; read-out: t1/2 in human hepatocytes
- Description: Materials. Cryopreserved human hepatocytes and Cryopreserved Hepatocytes Recovery Medium (CHRM™) were purchased from Life Technologies (Carlsbad, Calif.). Gibco™ Leibovitz's L-15 Medium was purchased from Fisher Scientific (Waltham, Mass.). Methods. 10 mM stock solutions containing Compound 20 and Compound 13 were prepared in DMSO. […] The analytes were detected by MS/MS with Electrospray Ionization (ESI) in the mode of multiple reaction monitoring (MRM). […]

Problem: Indicate its recorded half-life at 0.25 µM; the compound in question is `[2H]C([2H])([2H])c1cc(F)ccc1Oc1cc(C(F)(F)F)ccc1C(=O)Nc1ccn(COP(=O)(O)O)c(=O)c1`
Result: < 30 min

Problem: Indicate its recorded half-life at 0.25 µM; the compound in question is Cc1cc(F)ccc1Oc1cc(C(F)(F)F)ccc1C(=O)Nc1ccn(COP(=O)(O)O)c(=O)c1 [Compound 20, reference compound]
Result: < 30 min

* * *

- system-tested: human NaV 1.8 (Homo sapiens)
- Construct: KIR2.1 BacMam virus added before seeding
- Sequence (Q9Y5Y9 whole entry): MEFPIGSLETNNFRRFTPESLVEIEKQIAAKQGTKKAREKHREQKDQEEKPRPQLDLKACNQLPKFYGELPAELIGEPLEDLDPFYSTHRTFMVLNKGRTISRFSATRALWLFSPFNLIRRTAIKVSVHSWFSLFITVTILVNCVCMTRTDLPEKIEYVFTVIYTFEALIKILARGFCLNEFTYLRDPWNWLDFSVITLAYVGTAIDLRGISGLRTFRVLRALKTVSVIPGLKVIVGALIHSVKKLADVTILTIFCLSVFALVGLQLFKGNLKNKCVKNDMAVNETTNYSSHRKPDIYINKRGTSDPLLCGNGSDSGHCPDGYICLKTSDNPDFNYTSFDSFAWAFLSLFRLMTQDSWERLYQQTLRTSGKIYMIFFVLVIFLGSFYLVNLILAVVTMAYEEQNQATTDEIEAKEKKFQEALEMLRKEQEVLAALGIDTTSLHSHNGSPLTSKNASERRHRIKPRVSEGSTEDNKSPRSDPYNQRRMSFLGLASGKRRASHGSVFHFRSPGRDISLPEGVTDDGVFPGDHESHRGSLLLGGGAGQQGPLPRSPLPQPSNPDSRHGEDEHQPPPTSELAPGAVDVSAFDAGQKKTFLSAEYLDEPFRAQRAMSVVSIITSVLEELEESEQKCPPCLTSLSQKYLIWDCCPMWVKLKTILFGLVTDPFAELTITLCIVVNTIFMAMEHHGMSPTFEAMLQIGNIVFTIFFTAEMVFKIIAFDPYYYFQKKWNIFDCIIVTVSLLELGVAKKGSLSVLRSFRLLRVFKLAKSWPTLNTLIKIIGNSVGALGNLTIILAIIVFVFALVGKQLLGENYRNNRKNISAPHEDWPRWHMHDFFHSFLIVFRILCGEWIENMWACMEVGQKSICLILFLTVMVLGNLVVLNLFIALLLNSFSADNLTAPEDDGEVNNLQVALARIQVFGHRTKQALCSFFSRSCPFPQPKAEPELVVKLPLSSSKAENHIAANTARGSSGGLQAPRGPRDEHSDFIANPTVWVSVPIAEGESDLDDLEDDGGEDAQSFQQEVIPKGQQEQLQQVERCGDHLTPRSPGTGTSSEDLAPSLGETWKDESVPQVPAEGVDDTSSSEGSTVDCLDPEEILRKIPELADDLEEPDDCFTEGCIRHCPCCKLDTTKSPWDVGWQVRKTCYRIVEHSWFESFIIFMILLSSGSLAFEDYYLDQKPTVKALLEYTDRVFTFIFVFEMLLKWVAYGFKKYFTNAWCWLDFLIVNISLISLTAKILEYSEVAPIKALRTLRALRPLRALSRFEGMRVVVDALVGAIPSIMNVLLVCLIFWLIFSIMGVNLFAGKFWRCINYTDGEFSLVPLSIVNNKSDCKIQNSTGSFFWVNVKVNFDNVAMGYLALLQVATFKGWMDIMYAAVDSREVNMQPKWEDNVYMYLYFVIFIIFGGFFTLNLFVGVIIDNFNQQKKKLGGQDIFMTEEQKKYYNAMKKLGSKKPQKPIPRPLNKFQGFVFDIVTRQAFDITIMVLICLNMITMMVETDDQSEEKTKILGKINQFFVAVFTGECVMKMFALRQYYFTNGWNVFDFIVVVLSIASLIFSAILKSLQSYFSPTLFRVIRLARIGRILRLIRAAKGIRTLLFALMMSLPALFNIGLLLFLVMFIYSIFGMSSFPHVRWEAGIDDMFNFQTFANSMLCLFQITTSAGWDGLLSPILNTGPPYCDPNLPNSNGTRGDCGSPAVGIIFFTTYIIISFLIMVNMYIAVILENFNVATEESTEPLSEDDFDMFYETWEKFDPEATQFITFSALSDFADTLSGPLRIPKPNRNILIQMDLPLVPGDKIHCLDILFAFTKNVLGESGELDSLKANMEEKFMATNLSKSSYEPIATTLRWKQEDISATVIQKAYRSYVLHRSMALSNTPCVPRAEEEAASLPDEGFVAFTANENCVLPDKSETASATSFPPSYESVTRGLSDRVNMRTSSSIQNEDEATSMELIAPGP
- experimental-protocol: E-VIPR assay for NaV inhibition
- assay-setup: HEK cells expressing human NaV 1.8, E-VIPR, 11 point dose response, top dose 3 μM; read-out: Nav1.8 IC50
reported-property: pIC50
Note: pIC50 values are expressed as the negative base-10 logarithm of concentration in M.

Problem: Indicate its recorded pIC50; the molecule in question is `[2H]C([2H])([2H])c1cc(F)ccc1Oc1cc(C(F)(F)F)ccc1C(=O)Nc1ccn(COP(=O)(O)O)c(=O)c1`
Result: 5.92

* * *

- experimental-protocol: In vivo pharmacokinetic study, rat IV
- Design: species or system Male Sprague Dawley rats
- assay-setup: male, Sprague Dawley, plasma; rat IV bolus, cassette, nominal 0.5 mg/kg, noncompartmental analysis
reported-property: half-life (h)
Write the value in h as a bare number.

Problem: Indicate its recorded half-life; the compound in question is [2H]C([2H])([2H])c1cc(F)ccc1Oc1cc(C(F)(F)F)ccc1C(=O)Nc1cc[nH]c(=O)c1 [Compound 7]
Result: 4.4

Problem: Indicate its recorded half-life; the compound in question is Cc1cc(F)ccc1Oc1cc(C(F)(F)F)ccc1C(=O)Nc1cc[nH]c(=O)c1 [Compound 10, reference compound]
Result: 2.2

* * *

- experimental-protocol: In vivo pharmacokinetic study, rat IV
- Design: species or system Male Sprague Dawley rats
- assay-setup: male, Sprague Dawley, plasma; rat IV bolus, cassette, nominal 0.5 mg/kg, 0.5 hours
So I've got a bunch of compounds here, and I need their concentration at 0.5 h values.
Write the value in ng/mL as a bare number.

Problem: Indicate its recorded concentration at 0.5 h; the compound in question is `[2H]C([2H])([2H])c1cc(F)ccc1Oc1cc(C(F)(F)F)ccc1C(=O)Nc1cc[nH]c(=O)c1`
Result: 301

Problem: Indicate its recorded concentration at 0.5 h; the compound in question is Cc1cc(F)ccc1Oc1cc(C(F)(F)F)ccc1C(=O)Nc1cc[nH]c(=O)c1 [Compound 10, reference compound]
Result: 239

* * *

So I've got a bunch of compounds here, and I need their concentration at 2 h values.
- experimental-protocol: In vivo pharmacokinetic study, rat IV
- Parameters: species or system Male Sprague Dawley rats
- assay-setup: male, Sprague Dawley, plasma; rat IV bolus, cassette, nominal 0.5 mg/kg, 2 hours
- Description: General Procedures. Concentrations of the test compounds in plasma were determined using a high performance liquid chromatography/tandem mass spectrometry (HPLC/MS/MS) method. […] The analytes were detected by MS/MS with Electrospray Ionization (ESI) in the mode of multiple reaction monitoring (MRM). The lower limit of quantitation (LLOQ) was 1.00 ng/mL. […]
Write the value in ng/mL as a bare number.

Problem: Indicate its recorded concentration at 2 h; the compound in question is `[2H]C([2H])([2H])c1cc(F)ccc1Oc1cc(C(F)(F)F)ccc1C(=O)Nc1cc[nH]c(=O)c1`
Result: 208

Problem: Indicate its recorded concentration at 2 h; the compound in question is Cc1cc(F)ccc1Oc1cc(C(F)(F)F)ccc1C(=O)Nc1cc[nH]c(=O)c1 [Compound 10, reference compound]
Result: 111
